measurement_target: T1, recombinant human PD-L1 (amino acids 19-239 of NP_054862.1) expressed with a C-terminal mouse IgG2a Fc tag (human)
T1 construct: called dimeric; also called hPD-L1-mFc
T1 sequence (chain, as listed by the source limits assumed): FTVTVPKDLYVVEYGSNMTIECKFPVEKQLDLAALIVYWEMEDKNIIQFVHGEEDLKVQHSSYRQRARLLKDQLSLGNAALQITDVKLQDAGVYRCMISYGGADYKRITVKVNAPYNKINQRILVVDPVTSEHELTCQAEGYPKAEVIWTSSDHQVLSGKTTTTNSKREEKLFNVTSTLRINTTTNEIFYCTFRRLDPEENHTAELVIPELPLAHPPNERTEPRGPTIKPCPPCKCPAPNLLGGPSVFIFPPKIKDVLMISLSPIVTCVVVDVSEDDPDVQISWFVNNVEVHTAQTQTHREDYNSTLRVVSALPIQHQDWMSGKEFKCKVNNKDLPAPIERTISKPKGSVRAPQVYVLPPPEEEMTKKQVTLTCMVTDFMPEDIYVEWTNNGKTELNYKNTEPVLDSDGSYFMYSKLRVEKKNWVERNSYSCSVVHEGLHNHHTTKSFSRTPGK
assay_details: competition ELISA: 8 nM hPD-L1-mFc binding to coated hB7-1-hFc-6His
Measured IC50 of individual entries

Consider the reported IC50 for these binders:
binder: H2aM8310N (antibody, V domains shown, human variable regions, mouse IgG2 Fc (H2aM prefix); also called H2M8310N) VH: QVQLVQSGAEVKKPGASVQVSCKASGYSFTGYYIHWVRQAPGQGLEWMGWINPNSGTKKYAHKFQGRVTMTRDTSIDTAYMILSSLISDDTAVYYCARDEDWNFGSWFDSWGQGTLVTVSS VL: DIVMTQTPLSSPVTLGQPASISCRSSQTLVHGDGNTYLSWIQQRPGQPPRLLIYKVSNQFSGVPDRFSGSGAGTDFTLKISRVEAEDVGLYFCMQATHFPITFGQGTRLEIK
IC50: < 4 nM
//
binder: H2aM8323N (antibody, V domains shown, human variable regions, mouse IgG2 Fc (H2aM prefix); also called H2M8323N) VH: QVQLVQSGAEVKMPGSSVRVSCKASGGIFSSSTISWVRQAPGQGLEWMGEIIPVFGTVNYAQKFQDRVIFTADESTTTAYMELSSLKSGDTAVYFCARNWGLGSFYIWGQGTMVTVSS VL: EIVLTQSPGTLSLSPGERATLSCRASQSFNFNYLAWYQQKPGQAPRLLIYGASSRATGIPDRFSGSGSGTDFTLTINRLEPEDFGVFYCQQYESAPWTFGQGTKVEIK
IC50: < 4 nM

Supply IC50 value. Item: H2aM8314N (antibody, V domains shown, human variable regions, mouse IgG2 Fc (H2aM prefix); also called H2M8314N) VH: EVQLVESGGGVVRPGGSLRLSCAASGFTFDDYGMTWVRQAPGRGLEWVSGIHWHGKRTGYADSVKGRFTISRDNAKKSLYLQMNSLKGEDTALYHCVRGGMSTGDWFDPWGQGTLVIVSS VL: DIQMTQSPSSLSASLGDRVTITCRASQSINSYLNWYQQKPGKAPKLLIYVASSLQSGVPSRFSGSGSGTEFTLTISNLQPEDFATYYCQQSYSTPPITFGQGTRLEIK
< 4 nM
